Where do the numbers come from? From patent CN115246884A.

ASSAYED_TARGET: 生物素化的PD-L1抗原 (UniProt Q9NZQ7)
PROCEDURE_SUMMARY: competition ELISA, biotinylated PD-L1 on streptavidin, competitor PD-1 mFc 2.0 μg/mL; ratio = IC50 of chimeric antibody / IC50 of humanised antibody x 100%
METRIC: 相对竞争抑制活性，% (%)

binder="人源化抗PD-L1单域抗体C1-hu15 (Fc fusion, not shown: a dimerising Fc or GST) heavy: EVQLVESGGGLVQPGGSLRLSCAASGAAPCMAWFRQAPGKEREGVAASVRGGLSPYYADVKGRFTISHDNSKNTMYLQMNSLRAEDTAVYYCAARATFYRCEGDASSYTYWGQGTLVTVSS" endpoint_unit=% quantitative_readout=68.1
binder="人源化抗PD-L1单域抗体C1-hu1 (Fc fusion, not shown: a dimerising Fc or GST) heavy: EVQLLESGGGLVQPGGSLRLSCAASGAAPCMAWFRQAPGKGLEGVSASVRGGLSPYYADVKGRFTISHDIPKNTMYLQMNSLRAEDTAVYYCAARATFYRCEGDASSYTYWGQGTLVTVSS" endpoint_unit=% quantitative_readout=53.4
binder="人源化抗PD-L1单域抗体C1-hu5 (Fc fusion, not shown: a dimerising Fc or GST) heavy: EVQLVESGGGLVQPGGSLRLSCAASGAAPCMAWFRQAPGKGLEGVSASVRGGLSPYYADVKGRFTISHDIPKNTMYLQMNSLRAEDTAVYYCAARATFYRCEGDASSYTYWGQGTLVTVSS" endpoint_unit=% quantitative_readout=61.7
binder="人源化抗PD-L1单域抗体C1-hu2 (Fc fusion, not shown: a dimerising Fc or GST) heavy: EVQLLESGGGLVQPGGSLRLSCAASGAAPCMAWFRQAPGKGLEGVSASVRGGLSPYYADVKGRFTISHDIPKNTLYLQMNSLRAEDTAVYYCAARATFYRCEGDASSYTYWGQGTLVTVSS" endpoint_unit=% quantitative_readout=73.3
